# assayed system: hCA I (Homo sapiens, UniProt P00915)
# Sequence (P00915 whole entry): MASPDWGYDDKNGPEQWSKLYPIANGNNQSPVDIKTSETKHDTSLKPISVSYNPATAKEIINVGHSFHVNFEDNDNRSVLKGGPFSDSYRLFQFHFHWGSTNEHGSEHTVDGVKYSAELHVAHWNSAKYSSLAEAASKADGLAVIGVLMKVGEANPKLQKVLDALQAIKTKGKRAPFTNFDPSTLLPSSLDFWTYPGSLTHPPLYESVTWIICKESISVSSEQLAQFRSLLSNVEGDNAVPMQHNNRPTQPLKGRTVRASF
# assay remarks: hCA I esterase activity/kinetic assay
# Format: biochemical
# conditions: ratio of KI values
readout label: Selectivity index hCA II/hCA I
One number for each entry.

Solved cases below.
[
  {
    "structure smiles string": "CCCCC(=O)NS(=O)(=O)c1ccc(-c2nnc(SCC)o2)cc1",
    "Selectivity index hCA II/hCA I": 0.79
  },
  {
    "structure smiles string": "CCCCCCCCC(=O)NS(=O)(=O)c1ccc(-c2nnc(SCC)o2)cc1",
    "Selectivity index hCA II/hCA I": 2.93
  },
  {
    "structure smiles string": "CCCCCCC(=O)NS(=O)(=O)c1ccc(-c2nnc(SCC)o2)cc1",
    "Selectivity index hCA II/hCA I": 1.33
  },
  {
    "structure smiles string": "CCCCCCCCCCCC(=O)NS(=O)(=O)c1ccc(-c2nnc(SCC)o2)cc1",
    "Selectivity index hCA II/hCA I": 0.95
  },
  {
    "structure smiles string": "CCCCCCCC(=O)NS(=O)(=O)c1ccc(-c2nnc(SCC)o2)cc1",
    "Selectivity index hCA II/hCA I": 3.49
  }
]

# return Selectivity index hCA II/hCA I for each item in the list
1. CCSc1nnc(-c2ccc(S(=O)(=O)NC(=O)c3ccc(C)cc3)cc2)o1
2. CCCC(=O)NS(=O)(=O)c1ccc(-c2nnc(SCC)o2)cc1

0.30
1.24

Would you be so kind as to report Selectivity index hCA II/hCA I for each listed record?
1. CCSc1nnc(-c2ccc(S(=O)(=O)NC(=O)c3ccccc3)cc2)o1
2. CCCCCC(=O)NS(=O)(=O)c1ccc(-c2nnc(SCC)o2)cc1

[0.43, 0.88]
